# pKd values compiled below
ASSAY_TARGET: T1, human LSR (lipolysis stimulated lipoprotein receptor) (human, UniProt Q86X29 1-649)
T1 construct: Stood on human ovarian cancer cells (RMG-I, OVSAHO, JHOS2, OVISE; endogenous) or on SKOV3-L45 cells made to stably express LSR (construct not described); also called hLSR; human LSR protein (NP_991403.1)
T1 sequence: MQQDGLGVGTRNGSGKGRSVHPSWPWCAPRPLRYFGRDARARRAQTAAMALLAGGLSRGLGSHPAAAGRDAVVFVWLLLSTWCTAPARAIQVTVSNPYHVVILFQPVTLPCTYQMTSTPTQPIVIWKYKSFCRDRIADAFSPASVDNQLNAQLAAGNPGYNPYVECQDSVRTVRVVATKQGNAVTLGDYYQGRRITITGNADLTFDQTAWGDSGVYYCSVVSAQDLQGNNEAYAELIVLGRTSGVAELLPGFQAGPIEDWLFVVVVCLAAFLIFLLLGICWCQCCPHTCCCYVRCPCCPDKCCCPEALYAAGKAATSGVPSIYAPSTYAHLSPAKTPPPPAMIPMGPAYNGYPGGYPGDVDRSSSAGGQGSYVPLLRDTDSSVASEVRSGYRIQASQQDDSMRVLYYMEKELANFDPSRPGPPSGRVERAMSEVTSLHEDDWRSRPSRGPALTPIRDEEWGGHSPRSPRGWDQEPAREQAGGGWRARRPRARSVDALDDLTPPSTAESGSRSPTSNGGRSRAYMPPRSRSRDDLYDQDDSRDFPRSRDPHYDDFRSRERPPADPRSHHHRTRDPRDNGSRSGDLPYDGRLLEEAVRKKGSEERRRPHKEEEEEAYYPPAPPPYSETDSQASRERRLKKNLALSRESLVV
ASSAY_INFO: FACS on RMG-I cells stained with various antibody concentrations, goat anti-mouse IgG-FITC, fit in GraphPad Prism
pKd: −log10 of the molar value.
RESULT_TYPE: pKd

{"BINDER": "anti-LSR mouse/chicken chimeric monoclonal antibody #1-25 (antibody, V domains shown, also called No. 1-25; anti-LSR antibody 1-25) VH: AVTLDESGGGLQTPGGALSLVCKASGFDFSSYEMQWVRQAPGKGLEWVTGISGSGSSTRYGSAVKGRATISRDNGQSTVRLQLNNLRAEDTGTYYCARGSTIDAWGHGTEVTVST VL: ALTQPASVSANPGETVKITCSGGSSYAGSYYYGWYQQKSPGSAPVTVIYYNDQRPSDIPSRFSGSTSGSTATLTITGVQVEDEAVYICGTYEDSGGVFGAGTTLTV", "QUANTITATIVE_READOUT": 8.69}
{"BINDER": "anti-LSR mouse/chicken chimeric monoclonal antibody #9-7 (antibody, V domains shown, also called anti-LSR antibody 9-7) VH: AVTLDESGGGLQTPGGALSLVCKASGFTFSDYQMNWVRQAPSKGLEWVAGINGRSSWTDYGAAVKGRATISRDNGQSTVRLQLNNLRAEDTATYYCARGSSIDAWGHGTEVIVST VL: ALTQPASVSANPGETVKITCSGGGSYYGSYYYGWYQQKSPGSAPVTMIYNNNNRPSNIPSRFSGSLSGSTNTLTITGVQADEAVYYCGSIDSNIAGVFGAGTTLTV", "QUANTITATIVE_READOUT": 8.60}
{"BINDER": "anti-LSR mouse/chicken chimeric monoclonal antibody #27-6 (antibody, V domains shown, also called No. 27-6; anti-LSR antibody 27-6) VH: AVTLDESGGGLQMPGGALSLVCRASGFDFSSYEMQWIRQAPGKGLEWVAGISGAGSGTRYGSAVKGRATISRDNGQSTVRLQLNNLRAEDTGIYFCARSSNIDAWGHGTEVTVST VL: ALTQPASVSANLGGTVKITCSGGGRYAESYYYGWYQQKSPGSTPVTVIYWNDKRPSNIPSRFSGSLSGSTNTLTITGVQVEDEAVYFCGSYEDSRSAFGAGTTLTV", "QUANTITATIVE_READOUT": 8.37}
{"BINDER": "anti-LSR mouse/chicken chimeric monoclonal antibody #1-43 (antibody, V domains shown, also called No. 1-43; anti-LSR antibody 1-43) VH: AVTLDESGGGLQTPGGALSLVCEASGFDFSSHEMQWVRQAPGKGLEWVAGISGAGSSTRYGSAVQGRATISRDNGQSTVRLQLNNLRAEDTGTYYCARGSLIDAWGHGTEVIVST VL: ALTQPASVSANPGETVKITCSGGGSYYGSYYYSWHQQKSPGSAPVTVIYENNQRPSDIPSRFSGSKSGSTATLTITGVQAEDEAVYFCGSYDSSAGLFGAGTTLTV", "QUANTITATIVE_READOUT": 7.61}

// data source = patent US10174111
